measurementTarget: human cloned somatostatin receptor 1 (human) (UniProt P30872)
Sequence (P30872 whole entry): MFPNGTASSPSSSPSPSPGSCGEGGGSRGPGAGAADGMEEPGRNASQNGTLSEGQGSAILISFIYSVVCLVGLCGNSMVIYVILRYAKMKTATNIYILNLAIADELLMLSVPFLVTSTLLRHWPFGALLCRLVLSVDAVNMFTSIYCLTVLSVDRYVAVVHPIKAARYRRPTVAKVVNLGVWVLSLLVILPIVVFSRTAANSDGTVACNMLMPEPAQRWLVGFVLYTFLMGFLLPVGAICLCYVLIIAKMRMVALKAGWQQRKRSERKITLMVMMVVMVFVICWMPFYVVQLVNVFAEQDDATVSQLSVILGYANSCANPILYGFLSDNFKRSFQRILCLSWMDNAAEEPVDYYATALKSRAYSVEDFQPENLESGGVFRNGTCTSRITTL
runDescription: 125I-Tyr11-SRIF-14 displacement
*1 amine or outer side, *2 acyl side, *3 side chain or, on linkers, in order; H or OH if unused. Bridges are numbered along the chain shown (N, C = ends). [ ]: non-standard residue; d: D form. The star is where a group is joined. DOTA = O=C(O)CN1CCN(CC(=O)O)CCN(CC(=O)*)CCN(CC(=O)O)CC1; N(2-mercaptoethyl)Gly = O=C(CN(CCS[*:3])[*:1])[*:2]; Glutaryl = O=C(CCCC(=O)[*:2])[*:1]
assayEndpoint: % displacement at 1 nM (%)
Enter your answer as a number in %; do not include the unit.

Task: State the recorded % displacement at 1 nM for this entry: {DOTA}-G[dF]RCF[dW]KTF[N(2-mercaptoethyl)Gly]-NH2 (disulfide 4-10; SMILES C[C@@H](O)[C@@H]1NC(=O)[C@H](CCCCN)NC(=O)[C@@H](Cc2c[nH]c3ccccc23)NC(=O)[C@H](Cc2ccccc2)NC(=O)[C@@H](NC(=O)[C@H](CCCNC(=N)N)NC(=O)[C@@H](Cc2ccccc2)NC(=O)CNC(=O)CN2CCN(CC(=O)O)CCN(CC(=O)O)CCN(CC(=O)O)CC2)CSSCCN(CC(N)=O)C(=O)[C@H](Cc2ccccc2)NC1=O) [SEQ ID NO: 11]
Result: 2

Task: State the recorded % displacement at 1 nM for this entry: {Niraparib-Glutaryl}-[dF]RCF[dW]KTF[N(2-mercaptoethyl)Gly]-NH2 (disulfide 3-9) [SEQ ID NO: 28]
Result: 12

Task: State the recorded % displacement at 1 nM for this entry: H-XRCF[dW]KTY[N(2-mercaptoethyl)Gly]-NH2 (disulfide 3-9; not fully specified (residue 1); printed as H-Phe1-Arg2-Cys3-Phe4-D-Trp5-Lys6-Thr7-Tyr8-NTEG9-NH2 (cyclo 3-9)) [SEQ ID NO: 26]
Result: 0
